Listing of recorded GI50 by entry.
- Test system: UACC-257
- Assay Remarks: NCI tumour cell line growth inhibition, 48 h
Calls of active or inactive are those of the source. Cut-off read from the data, not from the text of the source: active = GI50 up to about 1.1 µM and inactive = higher.

Completed entries (count: 4):
INSERT INTO assay_data (compound, assayed_target, value_measured) VALUES
  ('COC(=O)CCC(NC(=O)C(C)NC(=O)COC1C(O)C(OC(=O)CCNc2c3ccccc3nc3cccc([N+](=O)[O-])c23)OC(OCc2ccccc2)C1NC(C)=O)C(N)=O (stereo not given)', 'UACC-257', '> 10 µM (inactive)'),
  ('Cc1cnc2c(c1)C(=O)N(c1ccc([N+](=O)[O-])cc1)S2(=O)=O', 'UACC-257', '> 100 µM (inactive)'),
  ('CCCCC(C(=O)C(=O)NC1C2CC3CC(C2)CC1C3)C(=O)C(C)C (stereo not given)', 'UACC-257', '> 100 µM (inactive)'),
  ('Cc1ccc(S(=O)(=O)N/N=C\c2c3ccccc3[n+]([O-])c3ccccc23)cc1', 'UACC-257', '9.95 µM (inactive)');

Please look at the following compound next.
The recorded GI50 with UACC-257 for C#CC(O)/C=C/C(O)CCCC(O)CC#CC(O)C#CCCCCC(O)/C=C/CCCC(=O)CCCCCCCCCCCCCCCC(O)C(O)C#CC(=O)O (stereo not given) was > 25 µM (inactive)

----------
- System: SN12C
- Assay Remarks: NCI tumour cell line growth inhibition, 48 h
Calls of active or inactive are those of the source. Rule as the data show it: active = GI50 up to about 1.1 µM and inactive = higher.
Hi! Could you answer with just one of these? label 1 for active, label 0 for inactive

Consider the worked cases shown below.
INSERT INTO measurements (compound, assayed_target, group_label) VALUES
  ('CC(=O)NC(CCCN(Cc1ccccc1)C(=O)N(CCCl)N=O)C(=O)NCc1ccccc1 (stereo not drawn)', 'SN12C', 'label 0'),
  ('COc1cccc(C2c3cc4c(cc3OC(N3CCOCC3)C2C)OCO4)c1OC (stereo not drawn)', 'SN12C', 'label 0'),
  ('Oc1nc(-c2cccc(F)c2)nc2ccccc12', 'SN12C', 'label 0'),
  ('O=C1N[C@@H]2CCCC[C@@H]2C12CCCCC2', 'SN12C', 'label 0'),
  ('CCOC(=O)C(=O)Nc1c(C)cccc1CC', 'SN12C', 'label 0'),
  ('COc1cc2c(cc1OCCCNC(=O)c1cc3ccccc3[nH]1)N=C[C@@H]1CCCN1C2=O', 'SN12C', 'label 1'),
  ('CCOC(=O)/C(=C\NCc1ccc2c(c1)OCO2)c1nc2ccccc2[nH]1', 'SN12C', 'label 0'),
  ('CC(=O)CCC[C@@H](C)[C@@H]1O[C@H]([C@@]2(C)CCC(=O)O2)C[C@H]2C(CSc3ccccc3)C(=O)O[C@@H]12 (stereo partly drawn)', 'SN12C', 'label 0'),
  ('O=Cc1ccc(-c2cc(C=O)c(-c3cccs3)[nH]2)s1', 'SN12C', 'label 0'),
  ('Cn1c(=O)c2c(ncn2CCNC(CO)C(O)c2ccc([N+](=O)[O-])cc2)n(C)c1=O (stereo not drawn)', 'SN12C', 'label 0');

Test call for this compound, please: CN1N=C(c2ccncc2)OC1c1ccccc1F (stereo not drawn) label 0

Just curious, what result did CCc1cc2c(cc1C(=O)CCC(=O)O)CC1(C2)Cc2cc(CC)c(C(=O)CCC(=O)O)cc2C1 get here? label 0

// return assay outcome for Cc1cnc2c(c1)C(=O)N(c1ccc([N+](=O)[O-])cc1)S2(=O)=O label 0
